// provenance: PubChem BioAssay AID1159580

Assay: chemical genetic growth profiling, strain panel (AID 1159580);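 also: tested at 20 µM; growth read once vehicle control cultures reached saturation at 30 °C; 1 = growth at the plate median or of vehicle wells; lower values mean less growth of the strain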
Conditions: S. cerevisiae deletion strains, growth OD, locus YNL175C, strain NOP13
Hit rate of the full screen: of about 5,500 compounds, about 2,000 (36%) were called active. About 18% were inconclusive and are not listed. Rule as the data show it: active = normalized growth mostly below about 0.91 (no sharp cut-off); inconclusive = no clear call, values can overlap the other calls; inactive = mostly above about 0.92. This is one part of the list.
Classes used: class 1 for active, class 0 for inactive

>>> class_label("CC(=O)SC1CC2=CC(=O)CC[C@]2(C)C2CC[C@@]3(C)C(CC[C@@]34CCC(=O)O4)C12 (some centres undefined)")
"class 0"
>>> class_label("Cc1c2ccncc2c(C)c2c1[nH]c1ccccc12")
"class 1"
>>> class_label("CCCCC/C=C\\C/C=C\\C/C=C\\C/C=C\\CCCC(=O)NCC(=O)O")
"class 0"
>>> class_label("CC12CCC3C(CCC4=C(O)C(=O)CCC43C)C1CCC2=O (centres undefined)")
"class 0"
>>> class_label("NOCC(=O)O")
"class 0"
>>> class_label("Nc1nc2c(nc(Br)n2C2OC3COP(=O)(O)O[C@@H]3C2O)c(=O)[nH]1 (some centres undefined)")
"class 0"
>>> class_label("CCCN(CCC)C1CCc2ccc(O)cc2C1 (centres undefined)")
"class 0"
>>> class_label("C=CCN1CCC23c4c5ccc(O)c4O[C@H]2C(=O)CC[C@@]3(O)C1C5 (some centres undefined)")
"class 0"
>>> class_label("CC(=O)O[C@H]1C[C@@H]2CC[C@@H]3[C@H](CC[C@@]4(C)[C@H]3C[C@H]([N+]3(C)CCCCC3)[C@@H]4OC(C)=O)[C@@]2(C)C[C@@H]1[N+]1(C)CCCCC1")
"class 0"
